molecular target: S1P1/EDG1 (Homo sapiens); test: S1P1 CRE-bla CHOK1 reporter assay, inhibition of Forskolin induced cAMP; format: cell-based; conditions: agonist activity range, S1P1 CRE-bla CHOK1, 2 μM Forskolin; read-out: S1P1 ACTIVITY
Sequence (P21453 whole entry): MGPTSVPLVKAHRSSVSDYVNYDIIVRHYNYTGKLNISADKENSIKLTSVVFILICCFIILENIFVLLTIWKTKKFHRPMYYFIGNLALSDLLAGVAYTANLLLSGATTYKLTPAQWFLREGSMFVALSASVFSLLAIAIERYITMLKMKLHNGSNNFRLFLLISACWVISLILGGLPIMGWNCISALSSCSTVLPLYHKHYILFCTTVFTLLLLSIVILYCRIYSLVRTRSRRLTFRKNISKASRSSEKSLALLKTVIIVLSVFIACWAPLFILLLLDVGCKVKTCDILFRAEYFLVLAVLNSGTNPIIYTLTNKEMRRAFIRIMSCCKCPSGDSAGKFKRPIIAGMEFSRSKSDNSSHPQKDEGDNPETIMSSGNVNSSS
Reported EC50 values for a set of compounds

Example entries and their recorded answers appear below.
- CC(C)Oc1ccc(-c2nc(-c3cccc4c3CC[C@H]4NC(=O)OCCO)no2)cc1C#N: 0.05 to 0.5 nM
- COCCNC1CCc2c(-c3noc(-c4ccc(OC(C)C)c(C#N)c4)n3)cccc21 (stereo in doubt): 0.5 to 5 nM
- CC(C)Oc1ccc(-c2nc(-c3cccc4c3CC[C@H]4NC(=O)N3CC[C@@H](O)C3)no2)cc1C#N: 0.05 to 0.5 nM
- N#Cc1cc(-c2nc(-c3cccc4c3CC[C@H]4N)no2)ccc1OCC1CC1: 0.5 to 5 nM
- CC(C)Oc1ccc(-c2nc(-c3cccc4c3CC[C@@H]4NC(=O)N3CCC(N(C)C)CC3)no2)cc1C#N: 0.5 to 5 nM

Give recorded EC50 with S1P1/EDG1 (Homo sapiens) for the following compound: CC(C)Oc1ccc(-c2nc(-c3cccc4c3CC[C@@H]4NS(=O)(=O)C3CC3)no2)cc1C#N
0.05 to 0.5 nM

Any idea what EC50 came out for CC(C)Oc1ccc(-c2nc(-c3cccc4c3CCC4NCCC(=O)O)no2)cc1C#N (racemic) on S1P1/EDG1 (Homo sapiens)?
< 0.05 nM

Requested read-out EC50, target or system S1P1/EDG1 (Homo sapiens), entry CC(C)Oc1ccc(-c2nc(-c3cccc4c3CCC4NCCN3CCCCC3)no2)cc1C#N (racemic)
> 5 nM

What is its EC50 for S1P1/EDG1 (Homo sapiens)? Entry: CC(C)Oc1ccc(-c2nc(-c3cccc4c3CC[C@@H]4NS(C)(=O)=O)no2)cc1C#N
< 0.05 nM

Kindly state the measured EC50 obtained for CC(C)Oc1ccc(-c2nc(-c3cccc4c3CC[C@H]4NC(=O)CO)no2)cc1C#N with S1P1/EDG1 (Homo sapiens).
< 0.05 nM

Please tell me: EC50 of CC(C)Oc1ccc(-c2nc(-c3cccc4c3CC[C@H]4NS(=O)(=O)CC(=O)N3CCC3)no2)cc1C#N , system S1P1/EDG1 (Homo sapiens)?
< 0.05 nM

Quick check: EC50 on S1P1/EDG1 (Homo sapiens), item CC(C)Oc1ccc(-c2nc(-c3cccc4c3CC[C@H]4NCC(=O)N3CCNCC3)no2)cc1C#N ?
> 5 nM

Please provide the recorded EC50 for COC(=O)CC1CCN(C(=O)N[C@H]2CCc3c(-c4noc(-c5ccc(OC(C)C)c(C#N)c5)n4)cccc32)CC1 , tested on S1P1/EDG1 (Homo sapiens).
0.05 to 0.5 nM

Fill in the recorded EC50 for this compound, with S1P1/EDG1 (Homo sapiens) as test system: CC(C)Oc1ccc(-c2nc(-c3cccc4c3CC[C@@H]4NC(=N)N)no2)cc1C#N
0.05 to 0.5 nM

# returns recorded EC50 (system: S1P1/EDG1 (Homo sapiens)) for CNC(=O)C1CN([C@H]2CCc3c(-c4noc(-c5ccc(OC(C)C)c(C#N)c5)n4)cccc32)C1
0.05 to 0.5 nM

Test system S1P1/EDG1 (Homo sapiens); read-out EC50; what value for CC(C)N[C@H]1CCc2c(-c3noc(-c4ccc(OC(C)C)c(C#N)c4)n3)cccc21 ?
0.5 to 5 nM

Find EC50 (S1P1/EDG1 (Homo sapiens)) for the entry CC(C)Oc1ccc(-c2nc(-c3cccc4c3CC[C@H]4NC(=O)N3CCC(C(=O)O)CC3)no2)cc1C#N
0.05 to 0.5 nM

Provide the documented EC50 with S1P1/EDG1 (Homo sapiens) as the system for CC(C)Oc1ccc(-c2nc(-c3cccc4c3CC[C@H]4NS(N)(=O)=O)no2)cc1C#N
< 0.05 nM
